Biological target: Kv4.3/KChIP2.2 (Homo sapiens, UniProt Q9UK17)
Sequence (Q9UK17 whole entry): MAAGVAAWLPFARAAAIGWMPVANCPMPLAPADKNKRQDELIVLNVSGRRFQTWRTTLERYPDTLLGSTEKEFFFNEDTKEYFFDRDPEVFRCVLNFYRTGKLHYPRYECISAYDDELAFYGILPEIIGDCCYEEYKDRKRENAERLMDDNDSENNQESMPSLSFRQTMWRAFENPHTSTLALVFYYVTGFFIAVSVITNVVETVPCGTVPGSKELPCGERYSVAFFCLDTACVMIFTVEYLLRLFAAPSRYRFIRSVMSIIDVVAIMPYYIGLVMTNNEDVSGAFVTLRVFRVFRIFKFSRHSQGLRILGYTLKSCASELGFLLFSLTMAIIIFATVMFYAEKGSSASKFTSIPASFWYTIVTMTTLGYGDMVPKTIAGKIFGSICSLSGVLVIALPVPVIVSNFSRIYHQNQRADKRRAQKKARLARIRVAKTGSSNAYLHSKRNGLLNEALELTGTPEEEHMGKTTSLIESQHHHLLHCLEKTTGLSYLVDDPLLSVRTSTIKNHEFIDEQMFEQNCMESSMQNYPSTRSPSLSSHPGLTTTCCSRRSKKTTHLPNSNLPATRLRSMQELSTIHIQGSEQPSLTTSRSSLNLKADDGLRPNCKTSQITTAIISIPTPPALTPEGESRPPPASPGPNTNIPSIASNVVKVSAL
Sequence (Q9NS61 whole entry partner): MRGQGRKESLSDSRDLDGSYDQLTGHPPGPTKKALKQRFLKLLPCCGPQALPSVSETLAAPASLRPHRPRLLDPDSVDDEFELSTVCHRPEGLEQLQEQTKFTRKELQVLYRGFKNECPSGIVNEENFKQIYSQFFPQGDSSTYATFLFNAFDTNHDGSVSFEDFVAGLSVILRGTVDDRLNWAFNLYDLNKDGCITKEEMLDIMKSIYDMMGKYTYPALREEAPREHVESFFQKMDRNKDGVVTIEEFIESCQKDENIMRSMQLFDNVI
Assay: IonWorks Quattro Kv4.3/KChIP2.2 screen (AstraZeneca, Q)
Assay type: cell-based
Conditions: IonWorks Quattro; −log10 of IC50 in Molar; Hill n = 1; 0.0 = pIC50 ≤ 0 fitted
With a cut-off of 3, any Kv4.3 pIC50 (Q) strictly below it is called YES; any Kv4.3 pIC50 (Q) meeting it or above is called NO.

compound | answer_label
CCCc1nn(C)c2c(=O)[nH]c(-c3cc(S(=O)(=O)N4CCN(C)CC4)ccc3OCC)nc12 | NO
CO[C@H]1C[C@@H]2CC[C@@H](C)[C@@](O)(O2)C(=O)C(=O)N2CCCC[C@H]2C(=O)O[C@H]([C@H](C)C[C@@H]2CC[C@@H](OCCO)[C@H](OC)C2)CC(=O)[C@H](C)/C=C(\C)[C@@H](O)[C@@H](OC)C(=O)[C@H](C)C[C@H](C)/C=C/C=C/C=C/1C | YES
Cc1cc(C#N)cc(C)c1Oc1nc(Nc2ccc(C#N)cc2)nc(N)c1Br | YES
Cc1nc2n(c(=O)c1CCN1CCC(c3noc4cc(F)ccc34)CC1)CCCC2O (centres unmarked) | NO
Cc1c(O)cccc1C(=O)N[C@@H](CSc1ccccc1)[C@H](O)CN1C[C@H]2CCCC[C@H]2C[C@H]1C(=O)NC(C)(C)C | YES
NC(=O)C(c1ccccc1)(c1ccccc1)[C@@H]1CCN(CCc2ccc3c(c2)CCO3)C1 | NO
COC(c1ccccc1)(c1ccccc1)[C@H](Oc1nc(C)cc(C)n1)C(=O)O | NO
CCCc1nc(C)c2c(=O)nc(-c3cc(S(=O)(=O)N4CCN(CC)CC4)ccc3OCC)[nH]n12 | NO
C[C@H](Cc1cc2c(c(C(N)=O)c1)N(CCCO)CC2)NCCOc1ccccc1OCC(F)(F)F | NO
OC(CNCC(O)C1CCc2cc(F)ccc2O1)C1CCc2cc(F)ccc2O1 (centres unmarked) | NO
CN(C)CC(c1ccc(O)cc1)C1(O)CCCCC1 (centres unmarked) | YES
CCN(CC)CCNC(=O)c1c(C)[nH]c(/C=C2\C(=O)Nc3ccc(F)cc32)c1C | NO
CC1=NN(c2ccc(C)c(C)c2)C(=O)/C1=N\Nc1cccc(-c2cccc(C(=O)O)c2)c1O | YES

----------
Experiment: Plasma concentration (Cmax) during the TQT study, total and calculated free
Format: in vivo, human
Details: Cmax high; calculated from ng/mL and molecular weight
observed_property: Cmax TOTAL (nM)

compound | unit_name | experimental_result
Cc1cn([C@@H]2C[C@@H](O)[C@H](CO)O2)c(=O)[nH]c1=O [Telbivudine] | nM | 27246.8
Cc1ccc(O)c([C@H](CCN(C(C)C)C(C)C)c2ccccc2)c1 [Tolterodine] | nM | 36.307
CS(=O)(=O)CCNCc1ccc(-c2ccc3ncnc(Nc4ccc(OCc5cccc(F)c5)c(Cl)c4)c3c2)o1 [Lapatinib] | nM | 5512.340
Cc1c(O)cccc1C(=O)N[C@@H](CSc1ccccc1)[C@H](O)CN1C[C@H]2CCCC[C@H]2C[C@H]1C(=O)NC(C)(C)C [Nelfinavir] | nM | 19197.2
O=C1c2cccc3c2[C@H](CCC3)CN1[C@@H]1CN2CCC1CC2 [Palonosetron] | nM | 16.823
CCCc1nc(C)c2c(=O)nc(-c3cc(S(=O)(=O)N4CCN(CC)CC4)ccc3OCC)[nH]n12 [Vardenafil] | nM | 183.043
Nc1nnc(-c2cccc(Cl)c2Cl)c(N)n1 [Lamotrigine] | nM | 37525.9
CNCC[C@H](Oc1cccc2ccccc12)c1cccs1 [Duloxetine] | nM | 1008.69
OC(CNCC(O)C1CCc2cc(F)ccc2O1)C1CCc2cc(F)ccc2O1 (stereo not drawn) [Nebivolol] | nM | 46.979

----------
Assay: Plasma concentration (Cmax) during the TQT study, total and calculated free
Type: in vivo, human
Settings: Cmax high
Response field label: string, one of Criterion met (Free plasma concentration strictly below 0.02 µM) or Criterion not met.

compound | answer_label
CN(C)CC(c1ccc(O)cc1)C1(O)CCCCC1 (centres unmarked) [Desvenlafaxine] | Criterion not met
Cc1nc2n(c(=O)c1CCN1CCC(c3noc4cc(F)ccc34)CC1)CCCC2O (centres unmarked) [Paliperidone] | Criterion not met
Cc1ccc(O)c([C@H](CCN(C(C)C)C(C)C)c2ccccc2)c1 [Tolterodine] | Criterion met
CCN(CC)CCNC(=O)c1c(C)[nH]c(/C=C2\C(=O)Nc3ccc(F)cc32)c1C [Sunitinib] | Criterion met
OC(CNCC(O)C1CCc2cc(F)ccc2O1)C1CCc2cc(F)ccc2O1 (centres unmarked) [Nebivolol] | Criterion met
Cc1nc(Nc2ncc(C(=O)Nc3c(C)cccc3Cl)s2)cc(N2CCN(CCO)CC2)n1.O [Dasatinib] | Criterion not met
C[C@@H](O)[C@H]1C(=O)N2C(C(=O)O)=C(S[C@@H]3CN[C@H](CNS(N)(=O)=O)C3)[C@H](C)[C@H]12 [Doripenem] | Criterion not met
COC[C@@H](NC(C)=O)C(=O)NCc1ccccc1 [Lacosamide] | Criterion not met

----------
Biological target: KCNQ1/MinK (Homo sapiens)
Experiment: IonWorks Quattro KCNQ1/MinK screen (AstraZeneca, Q)
Settings: −log10 of IC50 in Molar, Hill n = 1, 0.0 = pIC50 ≤ 0 fitted
As shown below, each of these compounds has a reported KCNQ1 pIC50 (Q) value.
observed_property: KCNQ1 pIC50 (Q)

compound | experimental_result
CO[C@H]1C[C@@H]2CC[C@@H](C)[C@@](O)(O2)C(=O)C(=O)N2CCCC[C@H]2C(=O)O[C@H]([C@H](C)C[C@@H]2CC[C@@H](OCCO)[C@H](OC)C2)CC(=O)[C@H](C)/C=C(\C)[C@@H](O)[C@@H](OC)C(=O)[C@H](C)C[C@H](C)/C=C/C=C/C=C/1C | 4.0
COC(c1ccccc1)(c1ccccc1)[C@H](Oc1nc(C)cc(C)n1)C(=O)O | 3.3
COc1cc2nc(N(C)CCCNC(=O)C3CCCO3)nc(N)c2cc1OC (stereo not shown) | 3.9
Cc1cc(C#N)cc(C)c1Oc1nc(Nc2ccc(C#N)cc2)nc(N)c1Br | 2.9
N[C@@H](CC(=O)N1CCn2c(nnc2C(F)(F)F)C1)Cc1cc(F)c(F)cc1F | 3.5
C[C@H]1CN(C[C@H](Cc2ccccc2)C(=O)NCC(=O)O)CC[C@@]1(C)c1cccc(O)c1 | 4.3
CS(=O)(=O)CCNCc1ccc(-c2ccc3ncnc(Nc4ccc(OCc5cccc(F)c5)c(Cl)c4)c3c2)o1 | 3.6

----------
Assay: Plasma concentration (Cmax) during the TQT study, total and calculated free
Type: in vivo, human
Details: Cmax low

compound | Free plasma concentration [µM]
Cc1ccc(O)c([C@H](CCN(C(C)C)C(C)C)c2ccccc2)c1 [Tolterodine] | 0.0006434
Nc1nnc(-c2cccc(Cl)c2Cl)c(N)n1 [Lamotrigine] | 28.1932
O=C1c2cccc3c2[C@H](CCC3)CN1[C@@H]1CN2CCC1CC2 [Palonosetron] | 0.00291
Cc1c(O)cccc1C(=O)N[C@@H](CSc1ccccc1)[C@H](O)CN1C[C@H]2CCCC[C@H]2C[C@H]1C(=O)NC(C)(C)C [Nelfinavir] | 0.0614
CN(C)CC(c1ccc(O)cc1)C1(O)CCCCC1 (stereo not drawn) [Desvenlafaxine] | 1.251
COc1c(N2C[C@@H]3CCCN[C@@H]3C2)c(F)cc2c(=O)c(C(=O)O)cn(C3CC3)c12 [Moxifloxacin] | 2.745
Cc1nc2n(c(=O)c1CCN1CCC(c3noc4cc(F)ccc34)CC1)CCCC2O (stereo not drawn) [Paliperidone] | 0.02216
Cc1nc(Nc2ncc(C(=O)Nc3c(C)cccc3Cl)s2)cc(N2CCN(CCO)CC2)n1.O [Dasatinib] | 0.007905
Cc1cn(-c2cc(NC(=O)c3ccc(C)c(Nc4nccc(-c5cccnc5)n4)c3)cc(C(F)(F)F)c2)cn1 [Nilotinib] | 0.08386
CS(=O)(=O)CCNCc1ccc(-c2ccc3ncnc(Nc4ccc(OCc5cccc(F)c5)c(Cl)c4)c3c2)o1 [Lapatinib] | 0.0239
COC[C@@H](NC(C)=O)C(=O)NCc1ccccc1 [Lacosamide] | 41.3114
CN1CC(=O)N2[C@H](c3ccc4c(c3)OCO4)c3[nH]c4ccccc4c3C[C@@H]2C1=O [Tadalafil] | 0.1361
C[C@H](Cc1cc2c(c(C(N)=O)c1)N(CCCO)CC2)NCCOc1ccccc1OCC(F)(F)F [Silodosin] | 0.004288
COc1cc2nc(N(C)CCCNC(=O)C3CCCO3)nc(N)c2cc1OC (stereo not drawn) [Alfuzosin] | 0.001529
C[C@@H](O)[C@H]1C(=O)N2C(C(=O)O)=C(S[C@@H]3CN[C@H](CNS(N)(=O)=O)C3)[C@H](C)[C@H]12 [Doripenem] | 45.8949
